# EXPERIMENTAL PROTOCOL: Cytotoxicity against mouse betaTC3 cells assessed as cell viability at 10 uM after 24 hrs by MTT assay relative to control
# Assay type: cell-based, Beta-TC3
# PARTICULARS: read-out: Activity
viability at 24 h, 10 µM under 90% gets y, anything at or over 90% gets n.

- COMPOUND: "CCCCCCCCCCCCCC(=O)OC[C@@H](O)COP(=O)([O-])OCC[N+](C)(C)C"
  CATEGORY: "y"
- COMPOUND: "CCCCCCCCCCCCCC(=O)OCC(COP(=S)([S-])OCC[N+](C)(C)C)OC (racemic)"
  CATEGORY: "n"
- COMPOUND: "CCCCCCCCCCCC(=O)OCC(COP(=S)([S-])OCC[N+](C)(C)C)OC (racemic)"
  CATEGORY: "y"
- COMPOUND: "CCCCCCCCCCCCCCCC(=O)OCC(COP(=S)([S-])OCC[N+](C)(C)C)OC (racemic)"
  CATEGORY: "n"
- COMPOUND: "CCCCCCCCCCCCCCCC(=O)OC[C@@H](O)COP(=O)([O-])OCC[N+](C)(C)C"
  CATEGORY: "y"
- COMPOUND: "CCCCCCCC/C=C\\CCCCCCCC(=O)OCC(COP(=O)([S-])OCC[N+](C)(C)C)OC (racemic)"
  CATEGORY: "n"

* * *

# EXPERIMENTAL PROTOCOL: Cytotoxicity against mouse betaTC3 cells assessed as cell viability at 10 uM after 48 hrs by MTT assay relative to control
# Format: cell-based, Beta-TC3
# PARTICULARS: read-out: Activity
PROPERTY: viability at 48 h, 10 µM (%)

- MOLECULE: "CCCCCCCCCCCCCC(=O)OCC(COP(=O)([S-])OCC[N+](C)(C)C)OC (mixture of isomers)"
  PROPERTY: "viability at 48 h, 10 µM"
  OBSERVED RESULT: 101
- MOLECULE: "CCCCCCCCCCCCCCCCCC(=O)OC[C@@H](O)COP(=O)([O-])OCC[N+](C)(C)C"
  PROPERTY: "viability at 48 h, 10 µM"
  OBSERVED RESULT: 59.3
- MOLECULE: "CCCCCCCCCCCC(=O)OCC(COP(=S)([S-])OCC[N+](C)(C)C)OC (racemic)"
  PROPERTY: "viability at 48 h, 10 µM"
  OBSERVED RESULT: 98.2
- MOLECULE: "CCCCCCCCCCCCCCCC(=O)OC[C@@H](O)COP(=O)([O-])OCC[N+](C)(C)C"
  PROPERTY: "viability at 48 h, 10 µM"
  OBSERVED RESULT: 59.8
- MOLECULE: "CCCCCCCCCCCCCCCC(=O)OCC(COP(=O)([S-])OCC[N+](C)(C)C)OC (racemic)"
  PROPERTY: "viability at 48 h, 10 µM"
  OBSERVED RESULT: 87.7
- MOLECULE: "CCCCCCCC/C=C\\CCCCCCCC(=O)OCC(COP(=S)([S-])OCC[N+](C)(C)C)OC (racemic)"
  PROPERTY: "viability at 48 h, 10 µM"
  OBSERVED RESULT: 95.9
- MOLECULE: "CCCCCCCCCCCCCCCC(=O)OCC(COP(=S)([S-])OCC[N+](C)(C)C)OC (racemic)"
  PROPERTY: "viability at 48 h, 10 µM"
  OBSERVED RESULT: 100
- MOLECULE: "CCCCCCCCCCCCCCCCCC(=O)OCC(COP(=O)([S-])OCC[N+](C)(C)C)OC (mixture of isomers)"
  PROPERTY: "viability at 48 h, 10 µM"
  OBSERVED RESULT: 61.4
- MOLECULE: "CCCCCCCCCCCC(=O)OC[C@@H](O)COP(=O)([O-])OCC[N+](C)(C)C"
  PROPERTY: "viability at 48 h, 10 µM"
  OBSERVED RESULT: 86.1
- MOLECULE: "CCCCCCCC/C=C\\CCCCCCCC(=O)OCC(COP(=O)([S-])OCC[N+](C)(C)C)OC (racemic)"
  PROPERTY: "viability at 48 h, 10 µM"
  OBSERVED RESULT: 92.4
- MOLECULE: "CCCCCCCCCCCCCC(=O)OC[C@@H](O)COP(=O)([O-])OCC[N+](C)(C)C"
  PROPERTY: "viability at 48 h, 10 µM"
  OBSERVED RESULT: 53.1
